Where do these numbers come from? They come from ChEMBL document CHEMBL3272051.

Tested on: Canis familiaris
Test: Effect on overt behavior in dog assessed as hyperreflexia at 0.05 to 10 mg/kg, iv
Type: organism-based, Canis lupus familiaris
Design: dose 0.05-10 mg/kg, route intravenous
Conditions: in vivo
outcome_measure: Activity

CCCCCc1cc(O)c2c(c1)OC(C)(C)C1=C2CC(O)CC1 (racemic) ... Toxic
CCCCCc1cc(O)c2c3c(c(=O)oc2c1)CCC(O)C3 (racemic) ... Non-toxic
CCCCCc1cc(O)c2c(c1)OC(C)(C)c1ccc(O)cc1-2 ... Non-toxic
CCCCCc1cc(O)c2c(c1)OC(C)(C)[C@@H]1CC[C@@H](O)C=C21 (racemic) ... Toxic
